Biological target: T1, Mouse BSSL, recombinant (mouse, UniProt Q64285 21-599)
T1 construct: Bought (R&D Systems, Cat. no 5658-CE); also called mBSSL; murine BSSL
T1 sequence: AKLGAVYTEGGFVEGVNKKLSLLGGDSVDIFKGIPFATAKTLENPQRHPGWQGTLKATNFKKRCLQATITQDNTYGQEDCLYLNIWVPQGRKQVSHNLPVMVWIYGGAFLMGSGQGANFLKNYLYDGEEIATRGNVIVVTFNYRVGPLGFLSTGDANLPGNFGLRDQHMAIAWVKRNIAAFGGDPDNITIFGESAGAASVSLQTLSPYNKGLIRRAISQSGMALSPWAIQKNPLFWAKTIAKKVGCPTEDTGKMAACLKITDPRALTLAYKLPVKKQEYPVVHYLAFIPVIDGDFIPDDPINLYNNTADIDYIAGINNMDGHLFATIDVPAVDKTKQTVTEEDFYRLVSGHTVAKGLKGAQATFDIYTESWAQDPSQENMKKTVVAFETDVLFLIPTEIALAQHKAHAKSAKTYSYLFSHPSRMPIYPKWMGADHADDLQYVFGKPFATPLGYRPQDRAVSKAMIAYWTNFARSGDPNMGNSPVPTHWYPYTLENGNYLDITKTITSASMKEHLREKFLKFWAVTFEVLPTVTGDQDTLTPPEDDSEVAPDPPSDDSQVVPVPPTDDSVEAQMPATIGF
Assay: SPR steady state, hIgG4 S228P captured by anti-Fab
ATTRIBUTE_MEASURED: Kd (nM)
Record the value in nM, omitting the unit from your answer.

Check out these entries, answers already filled in.
S-SL048-13 hIgG4 S228P (antibody, V domains shown, Tested as human IgG4 S228P) VH: QVQLVQSGAEVKKPGASVKVSCKASGYTFTSYNMHWVRQAPGQGLEWIGVINPSDGATSYTQKFQGRVTMTRDTSTSTVYMELSSLRSEDTAVYYCARDYYGSSPLGYWGQGTLVTVSS VL: DIQMTQSPSSLSASVGDRVTITCSASPSISYLNWYQQKPGKAPKLLIYATSSLASGVPSRFSGSGSGTDFTLTISSLQPEDFATYYCQQRSSSPTFGQGTKLEIK	57
S-SL048-38 hIgG4 S228P (antibody, V domains shown, Tested as human IgG4 S228P) VH: QVQLVQSGAEVKKPGASVKVSCKASGYTFTSYNMHWVRQAPGQGLEWMGVINPGDGATSYAQKFQGRVTMTRDTSTSTVYMELSSLRSEDTAVYYCARDYYGSSPLGYWGQGTLVTVSS VL: DIQMTQSPSSLSASVGDRVTITCRASPSISYLNWYQQKPGKAPKLLIYATSSLASGVPSRFSGSGSGTDFTLTISSLQPEDFATYYCQQRSSSPTFGQGTKLEIK	67
S-SL048-125 hIgG4 S228P (antibody, V domains shown, Tested as human IgG4 S228P) VH: QVQLVQSGAEVKKPGASVKVSCKASGYTFTSYNMHWVRQAPGQGLEWIGVINPGDGATSYAQKFQGRVTMTRDTSTSTVYMELSSLRSEDTAVYYCARDYYGSSPLGYWGQGTLVTVSS VL: DIQMTQSPSSLSASVGDRVTITCRASSSISYLHWYQQKPGKAPKLLIYAASRLPSGVPSRFSGSGSGTDFTLTISSLQPEDFATYYCHQRSSYPTFGQGTKLEIK	123
S-SL048-18 hIgG4 S228P (antibody, V domains shown, Tested as human IgG4 S228P) VH: QVQLVQSGAEVKKPGASVKVSCKASGYTFTSYNMHWVRQAPGQGLEWMGVINPSDGATSYTQKFKGRVTMTRDTSTSTVYMELSSLRSEDTAVYYCARDYYGSSPLGYWGQGTLVTVSS VL: DIQMTQSPSSLSASVGDRVTITCRASSSISYLNWYQQKPGKAPKLLIYATSRLQSGVPSRFSGSGSGTDFTLTISSLQPEDFATYYCHQRSSTPTFGQGTKLEIK	68
S-SL048-11 hIgG4 S228P (antibody, V domains shown, also called clone 11; mAb11) VH: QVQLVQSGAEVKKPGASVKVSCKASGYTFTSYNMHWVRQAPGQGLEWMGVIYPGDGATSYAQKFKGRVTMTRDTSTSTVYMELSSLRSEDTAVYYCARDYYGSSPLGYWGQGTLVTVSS VL: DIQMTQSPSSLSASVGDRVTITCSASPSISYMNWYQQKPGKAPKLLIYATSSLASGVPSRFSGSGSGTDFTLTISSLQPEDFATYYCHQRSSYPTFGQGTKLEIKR	24
S-SL048-65 hIgG4 S228P (antibody, V domains shown, Tested as human IgG4 S228P) VH: QVQLVQSGAEVKKPGASVKVSCKASGYTFTSYNMHWVRQAPGQGLEWIGVINPGDGATSYAQKFKGRVTMTRDTSTSTVYMELSSLRSEDTAVYYCARDYYGSSPLGYWGQGTLVTVSS VL: DIQMTQSPSSLSASVGDRVTITCSASQSISYLNWYQQKPGKAPKLLIYDASSLPSGVPSRFSGSGSGTDFTLTISSLQPEDFATYYCHQRSSSPTFGQGTKLEIK	30

What measured Kd goes with S-SL048-79 hIgG4 S228P (antibody, V domains shown, Tested as human IgG4 S228P) VH: QVQLVQSGAEVKKPGASVKVSCKASGYTFTSYNMHWVRQAPGQGLEWMGVINPSDGATSYAQKFQGRVTMTRDTSTSTVYMELSSLRSEDTAVYYCARDYYGSSPLGYWGQGTLVTVSS VL: DIQMTQSPSSLSASVGDRVTITCSASQSISYLNWYQQKPGKAPKLLIYAASRLPSGVPSRFSGSGSGTDFTLTISSLQPEDFATYYCHQRSSYPTFGQGTKLEIK ?
48

What measured Kd goes with S-SL048-14 hIgG4 S228P (antibody, V domains shown, Tested as human IgG4 S228P) VH: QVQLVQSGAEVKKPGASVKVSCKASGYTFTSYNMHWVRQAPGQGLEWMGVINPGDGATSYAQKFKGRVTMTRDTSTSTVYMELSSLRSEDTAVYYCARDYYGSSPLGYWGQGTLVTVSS VL: DIQMTQSPSSLSASVGDRVTITCRASPSISYLNWYQQKPGKAPKLLIYATSRLPSGVPSRFSGSGSGTDFTLTISSLQPEDFATYYCQQRSSSPTFGQGTKLEIK ?
89

What measured Kd goes with S-SL048-40 hIgG4 S228P (antibody, V domains shown, Tested as human IgG4 S228P) VH: QVQLVQSGAEVKKPGASVKVSCKASGYTFTSYNMHWVRQAPGQGLEWIGVINPSDGATSYAQKFQGRVTMTRDTSTSTVYMELSSLRSEDTAVYYCARDYYGSSPLGYWGQGTLVTVSS VL: DIQMTQSPSSLSASVGDRVTITCRASSSISYLNWYQQKPGKAPKLLIYAASRLPSGVPSRFSGSGSGTDFTLTISSLQPEDFATYYCQQRSSSPTFGQGTKLEIK ?
87

What measured Kd goes with S-SL048-105 hIgG4 S228P (antibody, V domains shown, Tested as human IgG4 S228P) VH: QVQLVQSGAEVKKPGASVKVSCKASGYTFTSYNMHWVRQAPGQGLEWMGVINPSDGATSYAQKFQGRVTMTRDTSTSTVYMELSSLRSEDTAVYYCARDYYGSSPLGYWGQGTLVTVSS VL: DIQMTQSPSSLSASVGDRVTITCSASQSISYLHWYQQKPGKAPKLLIYAASKLPSGVPSRFSGSGSGTDFTLTISSLQPEDFATYYCHQRSSYPTFGQGTKLEIK ?
237
